Below, each of the sequences is paired with its reported protein stability index value.
Tested on: Saccharomyces cerevisiae
Test: protein stability index of tFT-peptide fusion (C-terminal peptide) (PSI (0-1 scale)); higher = more stable (slower turnover);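 also: PSI is a weighted mean of sequencing reads over stability bins, variants kept only with over 10 reads, mCherry proximal and sfGFP distal, peptide attached via GGGS linker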
Details: genetic background: wild type; temperature: 30 C

chain | assay_system | protein stability index
LPSLFSPPLFPL | Saccharomyces cerevisiae | 0.702
GPNRCPGRPVTP | Saccharomyces cerevisiae | 0.703
SWGGELGATSGG | Saccharomyces cerevisiae | 0.708
RTSYIKNQKKKG | Saccharomyces cerevisiae | 0.699
SHPTLCSFSPPA | Saccharomyces cerevisiae | 0.686
PPGPPLPRPRRP | Saccharomyces cerevisiae | 0.694
PMVETKVGGIAN | Saccharomyces cerevisiae | 0.705
FETGPGSCTACA | Saccharomyces cerevisiae | 0.68
FLFSDLVCSSVF | Saccharomyces cerevisiae | 0.704
LGHVHLIGDIVC | Saccharomyces cerevisiae | 0.704
KKKEKQRQSKRR | Saccharomyces cerevisiae | 0.689
GMNCDMCRIRTL | Saccharomyces cerevisiae | 0.683
RGARRGAPVCGW | Saccharomyces cerevisiae | 0.71
PPALLRLTSSAR | Saccharomyces cerevisiae | 0.702
VARGVGGGVWRS | Saccharomyces cerevisiae | 0.704
PFLHPSSPPSPT | Saccharomyces cerevisiae | 0.698
LFRPTPPSFAPP | Saccharomyces cerevisiae | 0.683
PSSSDHDTRQKK | Saccharomyces cerevisiae | 0.708
LSRFPSPPPLSH | Saccharomyces cerevisiae | 0.701
LAFSGAWGILPL | Saccharomyces cerevisiae | 0.682
HLSPGRLPPPVQ | Saccharomyces cerevisiae | 0.714
LPGFTLPSSPSH | Saccharomyces cerevisiae | 0.702
APKPPPPPPPLP | Saccharomyces cerevisiae | 0.709
RGAGYQLFGPPR | Saccharomyces cerevisiae | 0.698
PPGQPPARSSPV | Saccharomyces cerevisiae | 0.706
SNHTIIGNVVHF | Saccharomyces cerevisiae | 0.713
PPPLPFPPSPPL | Saccharomyces cerevisiae | 0.681
GVYRGNNGSPVK | Saccharomyces cerevisiae | 0.689
SWGGLGSFCRVI | Saccharomyces cerevisiae | 0.684
CSGEGDQWLGVR | Saccharomyces cerevisiae | 0.714
VSGCPVVFRSYC | Saccharomyces cerevisiae | 0.693
ERRGRDRSQTLR | Saccharomyces cerevisiae | 0.715
KKQNRTRLKKSK | Saccharomyces cerevisiae | 0.702
ALHYEVVGRGYL | Saccharomyces cerevisiae | 0.679

###

Below, each of the sequences is paired with its reported protein stability index value.
Tested on: Saccharomyces cerevisiae
Test: protein stability index of tFT-peptide fusion (C-terminal peptide) (PSI (0-1 scale)); higher = more stable (slower turnover)
Settings: genetic background: cdc53-1; temperature: 37 C
readout_kind: protein stability index

chain | readout_number
FGFSFLHLFIFF | 0.395
RRRNQAAHLYSH | 0.694
RRIKNRRLKQVT | 0.694
LLSGLVFVFVLG | 0.405
SYVRLDLFFFLG | 0.591
ACVRFPLVLVVF | 0.0448

###

System: Saccharomyces cerevisiae
Experiment: protein stability index of tFT-peptide fusion (C-terminal peptide) (PSI (0-1 scale)); higher = more stable (slower turnover)
Conditions: genetic background: wild type; temperature: 30 C
Below, each of the sequences is paired with its reported protein stability index value.
readout_kind: protein stability index

chain | readout_number
PHPDPDHCHAPP | 0.713
CCGGRTWFVCGV | 0.699
STSSNGVGLPRL | 0.901
LHHPPSTHRGPD | 0.711
RHPSAPRPVPLM | 0.695
SPGTFLSLRMSI | 0.703
FPFVYRSVLLFF | 0.177
AYGGEWGDRGWL | 0.688
RCHGRVNLAEGE | 0.756
NNVCGIIFRQHH | 0.632
LMRSFLHFHLCL | 0.632
KLPRPPQRLRLP | 0.684
DQRRWLWGGILK | 0.707
AGGLHRSRPCVD | 0.709
GAVSRRALPRRP | 0.709
RPDSPSPLPPPP | 0.637
